All figures here come from patent US7192953B2.

Kindly supply the reported MIC values for the records listed here.
Test system: M. catarrhalis
experiment_notes: MIC by agar plate dilution against clinical isolates of M. catarrhalis
Assay type: cell-based
test_settings: Moraxella catarrhalis, 3 strains of M. catarrhalis (clinical isolates), 18 to 24 hr, 35° C, read-out: MIC or MIC range, M. catarrhalis
Numbers only, in µg/mL.

molecule="O=CN(O)C[C@@H](CC1CCCC1)C(=O)N1CCCCN1C(=O)c1ccc2c(c1)OCO2 [Example 8]" reported_measurement=0.5

List MIC for every entry below, keeping the order given.
1. O=CN(O)C[C@@H](CC1CCCC1)C(=O)N1CCCCN1C(=O)c1ccc(F)cc1 [Example 10]
2. O=CN(O)C[C@@H](CC1CCCC1)C(=O)N1CCCCN1C(=O)N1CCC(Cc2ccccc2)CC1 [Example 22]
3. O=CN(O)C[C@@H](CC1CCCC1)C(=O)N1CCCN1C(=O)c1ccoc1 [Example 37]

Resp:
1. 0.5
2. 2
3. 0.06

List MIC for every entry below, keeping the order given.
1. COCC(=O)N1CCCN1C(=O)[C@H](CC1CCCC1)CN(O)C=O [Example 26]
2. O=CN(O)C[C@@H](CC1CCCC1)C(=O)N1CCCN1C(=O)Cc1ccccc1 [Example 29]
3. O=CN(O)C[C@@H](CC1CCCC1)C(=O)N1CCCN1C(=O)c1ccc(N2CCOCC2)nc1 [Example 32]
4. O=CN(O)C[C@@H](CC1CCCC1)C(=O)N1CCCN1C(=O)c1ccccc1 [Example 27]

Resp:
1: 0.125; 2: 0.06; 3: 0.25; 4: 0.06
